Value source: ChEMBL document CHEMBL4118236

experiment: Dissociation constant, pKa of the compound by potentiometric titration method; type: physicochemical
Readout Label: pKa
Keep it simple and answer with nothing but the number.

## Input What does the data say about its pKa? Entry: `Cc1nc(C(=O)NCC(=O)O)c(O)c2ccc(Oc3ccccc3)cc12`
## Output 3.15

Consider the record given below.
## Input What does the data say about its pKa? Entry: `O=C(O)CNC(=O)c1ncc(-c2cn(CCCc3ccc(Cl)cc3)nn2)cc1O`
## Output 3.21

###

assay: Therapeutic index, ratio of compound effect for toxicity in C57BL/6 mouse to compound effect for upregulation of plasma EPO level in C57BL/6 mouse; type: organism-based; conditions: read-out: TI
Readout Label: selectivity ratio
Keep it simple and answer with nothing but the number.

## Input What does the data say about its selectivity ratio? Entry: `O=C(O)CNC(=O)c1ncc(-c2cn(CCCc3ccc(Cl)cc3)nn2)cc1O`
## Output 10

###

assay: Oral bioavailability in Sprague-Dawley rat at 10 mg/kg by LC-MS/MS; format: ADME, organism-based; conditions: in vivo
Readout Label: bioavailability (%)
Return type: number; implicit unit %.

## Input What does the data say about its bioavailability? Entry: `O=C(O)CNC(=O)c1ncc(-c2cn(CCCc3ccc(Cl)cc3)nn2)cc1O`
## Output 54.1

###

test system: Rattus norvegicus; assay: AUC (0 to t) in Sprague-Dawley rat at 1 mg/kg, iv by LC-MS/MS; type: ADME, organism-based; details: in vivo
Readout Label: AUCt (µg·h/mL)
Return type: number; implicit unit µg·h/mL.

## Input What does the data say about its AUCt? Entry: `O=C(O)CNC(=O)c1ncc(-c2cn(CCCc3ccc(Cl)cc3)nn2)cc1O`
## Output 0.923
